# Tested on: Amaranthus retoflexus (AMARE)
# Measurement notes: Pre-emergence biological efficacy, glasshouse pot test
# Format: in vivo
# Condition parameters: Amaranthus retroflexus, 312 h; pre-emergence, 1,000 g/ha, evaluated after 13 days (100=total damage; 0=no damage); read-out: Percentage damage AMARE
Binary classification by pest or weed control at 1000 g/ha, with 80% as an inclusive lower bound for 1 (yes); all other cases are 0 (no).

Molecule	Category label
COC(=O)c1nc(C2CC2)nc(NCc2cc(OC)c(OC)c(OC)c2)c1Cl	0 (no)
COC(=O)c1nc(C2CC2)nc(NCc2cccc(-c3ccccc3)c2)c1Cl	0 (no)
COC(=O)c1nc(C2CC2)nc(NCCC(=O)OCc2ccccc2)c1Cl	1 (yes)
COC(=O)c1nc(C2CC2)nc(NCC2(OC)C=CC(OC)O2)c1Cl (stereo not drawn)	1 (yes)
COC(=O)c1nc(C2CC2)nc(NCCNc2ccccc2)c1Cl	1 (yes)
C=CCC(Nc1nc(C2CC2)nc(C(=O)OC)c1Cl)c1ccc(Cl)cc1 (stereo not drawn)	0 (no)
COc1ccc(CNc2nc(C3CC3)nc(C(=O)O)c2Cl)c(OC)c1	1 (yes)
COC(=O)c1nc(C2CC2)nc(NCc2ccc3c(c2)OCO3)c1Cl	1 (yes)
COC(=O)c1nc(C2CC2)nc(NCCc2ccccc2)c1Cl	1 (yes)
COC(=O)c1nc(C2CC2)nc(NCc2ccc(C(F)(F)F)nc2)c1Cl	0 (no)
COC(=O)c1nc(C2CC2)nc(N[C@@H](CC2CCCCC2)C(=O)OC)c1Cl [4-282 (S)]	1 (yes)
COC(=O)c1nc(C2CC2)nc(NC2(/C=C/c3ccc(C)cc3)CC2)c1Cl	1 (yes)
COC(=O)c1nc(C2CC2)nc(NC2(/C=C/c3ccccc3)CC2)c1Cl [4-19 (E)]	0 (no)
COC(=O)c1nc(C2CC2)nc(NCCCN2CCCCC2C)c1Cl (stereo not drawn)	0 (no)
COC(=O)c1nc(C2CC2)nc(N[C@@H](CO)c2ccccc2)c1Cl [4-203 (R)]	1 (yes)
COC(=O)c1nc(C2CC2)nc(NCCc2c[nH]c3ccc(OC)cc23)c1Cl	0 (no)
COC(=O)c1nc(C2CC2)nc(NCc2cccc(C)c2)c1Cl	0 (no)
